# Procedure Text: Rat biodistribution of Tc-99m complexes
# Condition Description: 60 min p.i.
Quantity: Blood (% Injected dose/organ)

Please review the entries below; each comes with its answer.
>  <Compound>
COCCP(CCOC)CCP(CCOC)CCOC

>  <Blood, % Injected dose/organ>
0.54

$$$$
>  <Compound>
C1COC(CP(CCP(CC2CCCO2)CC2CCCO2)CC2CCCO2)C1 (stereo not drawn)

>  <Blood, % Injected dose/organ>
0.55

$$$$
>  <Compound>
CCOCCP(CCOCC)CCP(CCOCC)CCOCC [Compound 1, (EtOC2 H4)2 P--C2 H4 --P(C2 H4 OEt)2]

>  <Blood, % Injected dose/organ>
0.28

$$$$
>  <Compound>
COCC(C)CP(CCP(CC(C)COC)CC(C)COC)CC(C)COC (stereo not drawn)

>  <Blood, % Injected dose/organ>
1.02

$$$$
>  <Compound>
COC(C)CCP(CCC(C)OC)CCP(CCC(C)OC)CCC(C)OC (stereo not drawn)

>  <Blood, % Injected dose/organ>
0.67

$$$$

a = CCOCC(COCC)CP(CCP(CC(COCC)COCC)CC(COCC)COCC)CC(COCC)COCC
b = CCOCCCP(CCCOCC)CCP(CCCOCC)CCCOCC
Smaller Blood value? Options are a and b Answer format: the label of the selected item.
b
(b: 0.73 % Injected dose/organ, a: 5.78 % Injected dose/organ)

Hey, just so you know, these numbers are from patent US5045302A.
